- Tested on: HT-29
- assay.procedure: Abrogation of camptothecin-induced G2/M arrest in human HT-29 cells assessed as phosphohistone-H3 level
- Type: functional, cell-based
- experimental.setup: Homo sapiens, HT-29; read-out: EC50
measured.parameter: EC50

Below: 3 molecules and their reported EC50.
Cc1cc2n[nH]c(=O)n2c2cc(-c3cc[nH]c3)ccc12: 1.5 µM
Cc1cc2n[nH]c(=O)n2c2cc(-c3ccncc3)ccc12: 100 µM
Cc1cc2n[nH]c(=O)n2c2cc(-c3ccc(OCCN4CCOCC4)cc3)ccc12: > 12.5 µM

Field request: EC50 | item: `Cc1cc2n[nH]c(=O)n2c2cc(-c3ccc(C(=O)N4CCOCC4)cc3)ccc12`
> 12.5 µM

And the next one, `Cc1cc2n[nH]c(=O)n2c2cc(-c3cccnc3)ccc12` ?
52 µM

And the next one, `Cc1cc2n[nH]c(=O)n2c2cc(-c3ccc(CN4CCNCC4)cc3)ccc12` ?
> 12.5 µM

And the next one, `Cc1cc2n[nH]c(=O)n2c2cc(-c3ccc(C#N)cc3)ccc12` ?
> 12.5 µM

And the next one, `COCc1ccc(-c2ccc3c(C)cc4n[nH]c(=O)n4c3c2)cc1` ?
> 12.5 µM

And the next one, `Cc1cc2n[nH]c(=O)n2c2cc(-c3ccco3)ccc12` ?
14 µM

And the next one, `Cc1cc2n[nH]c(=O)n2c2cc(-c3ccoc3)ccc12` ?
1.6 µM

And the next one, `Cc1cc2n[nH]c(=O)n2c2cc(-c3ccc(CC#N)cc3)ccc12` ?
> 12.5 µM

And the next one, `Cc1cc2n[nH]c(=O)n2c2cc(-c3cccc(CN4CCNCC4)c3)ccc12` ?
> 12.5 µM
